Read-out: solute carrier (SLCO1B1), SLCO1B1 (gene 10599)
Assay: LTEA_HepaRG_SLCO1B1: Life Technologies and Expression Analysis (LTEA) Assay for solute carrier (SLCO1B1) using HepaRG (AID 2283530)
Details: mRNA level, 48 h; actives raise or lower the signal
Calls of active or inactive are those of the source. The calls were made as follows: active = hit-call score of the fitted dose curve at least 0.9, where 1 is the maximum; inactive = score below 0.9.
Hi! Could you answer with just one of these? active, inactive

Previously resolved entries follow.
# compound, qualitative-label
data = [
    ("Cc1oc2c(NC(=O)c3c(Cl)cccc3Cl)cccc2c1C(C)(C)O", "active"),
    ("CC(O)CC(C)(C)O (stereo not given)", "inactive"),
    ("CCCCCc1ccc(N)cc1", "inactive"),
]

[Q] Given O=CCCCC=O , state the outcome it received in this test.
[A] inactive

[Q] Given O=c1[nH]sc2ccccc12 , state the outcome it received in this test.
[A] inactive

[Q] Given c1ccc2n[nH]nc2c1 , state the outcome it received in this test.
[A] inactive

---

Read-out: Intercellular Adhesion Molecule 1 (ICAM1), ICAM1 (gene 3383)
Assay: LTEA_HepaRG_ICAM1: Life Technologies and Expression Analysis (LTEA) Assay for Intercellular Adhesion Molecule 1 (ICAM1) using HepaRG (AID 2283507)
Settings: mRNA level, 48 h; actives raise or lower the signal
Experimental: LTEA_HepaRG is a cell based, multiplexed-readout assay that uses HepaRG, a human liver cell line, with measurements taken at 48 hours after chemical dosing on a 96-well plate.LTEA_HepaRG_ICAM1 is one of 102 assay component(s) measured in the LTEA HepaRG cell culture assay. It is a marker of Fibrosis.Data from the assay component LTEA_HepaRG_ICAM1 was analyzed into 1 endpoint. […]
Active and inactive are the calls of the source. The calls were made as follows: active = hit-call score of the fitted dose curve at least 0.9, where 1 is the maximum; inactive = score below 0.9.
Hi! Could you answer with just one of these? t = active, f = inactive

# query-smiles, qualitative-label
data = [
    ("Cc1ncc(CO)c(CO)c1O", "f"),
]

[Q] Given COc1cc(C(=O)NC2CCN(C)CC2)ccc1Nc1ncc2c(n1)N(C1CCCC1)CC(F)(F)C(=O)N2C , state the outcome it received in this test.
[A] t

[Q] Given Cc1ccc(C(C)C)cc1 , state the outcome it received in this test.
[A] f

[Q] Given CN(C)c1ccc(C(=C2C=CC(=[N+](C)C)C=C2)c2ccc(N(C)C)cc2)cc1 , state the outcome it received in this test.
[A] t

[Q] Given Clc1ccccc1C(c1ccccc1)(c1ccccc1)n1ccnc1 , state the outcome it received in this test.
[A] t

---

Read-out: Paternally Expressed 10 (PEG10), PEG10 (gene 23089)
Test: LTEA_HepaRG_PEG10: Life Technologies and Expression Analysis (LTEA) Assay for Paternally Expressed 10 (PEG10) using HepaRG (AID 2283520);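 as to AC50: differentiated HepaRG human liver cells in serum-free induction medium with 0.5% DMSO; PEG10 transcript by qRT-PCR normalised to ACTB GAPDH and POLR2A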
Conditions: mRNA level, 48 h; actives raise or lower the signal
Activity calls are given as the source filed them. How the source made its calls: active means hit-call score of the fitted dose curve at least 0.9, where 1 is the maximum; inactive means score below 0.9.
assay-endpoint: AC50

Sample answers from the record:
# compound, measurement
data = [
    ("CC(C)(O)c1ccc(CNC(=O)c2cccnc2Oc2ccc3nonc3c2)cc1", "inactive"),
    ("NCc1cccc(C2CCN(C(=O)c3ccc(C#Cc4ccccc4F)o3)CC2)c1", "24.7 µM (active)"),
    ("COCC(C)OCC(C)OCC(C)O (configuration not stated)", "inactive"),
    ("CCCCCc1ccc(N)cc1", "inactive"),
]

[Q] Provide only the value of recorded AC50 for CCCCCCCCOC(=O)c1cc(O)c(O)c(O)c1
[A] inactive

[Q] Provide only the value of recorded AC50 for CCCCCCCC[Si](OCC)(OCC)OCC
[A] inactive

[Q] Provide only the value of recorded AC50 for O=C(O)Cc1cc(I)c(Oc2ccc(O)c(I)c2)c(I)c1
[A] 0.558 µM (active)
